- ASSAY TARGET: T1, human CD8 on human T cells (human, UniProt P01732 22-235; P10966 22-210)
- T1 construct: whole, on cells; Target as carried by human CD3+/CD8+ T cells, PBMCs or MART-1-specific T cells; the mice were immunized with human CD8a; also called hCD8; CD8 expressed on the cell surface
- T1 sequence (P01732 22-235, chain 1 of 2): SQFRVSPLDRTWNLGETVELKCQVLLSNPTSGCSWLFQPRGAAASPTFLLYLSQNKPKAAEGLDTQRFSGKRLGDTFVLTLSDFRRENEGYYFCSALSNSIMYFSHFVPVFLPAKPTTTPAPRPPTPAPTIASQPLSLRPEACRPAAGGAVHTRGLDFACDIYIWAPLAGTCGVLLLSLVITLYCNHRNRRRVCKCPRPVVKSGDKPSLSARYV
- T1 sequence (P10966 22-210, chain 2 of 2): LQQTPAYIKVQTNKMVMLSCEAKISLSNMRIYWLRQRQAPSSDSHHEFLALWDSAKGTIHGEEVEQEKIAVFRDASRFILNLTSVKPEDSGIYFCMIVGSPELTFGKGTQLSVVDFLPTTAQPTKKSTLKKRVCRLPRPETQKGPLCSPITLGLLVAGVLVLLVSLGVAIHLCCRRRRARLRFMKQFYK
- PROTOCOL: flow cytometry, 5 nM antibody on human CD8+ T cells, anti-human IgG detection (MFI AF647)
QUANTITY MEASURED: binding result

Incoming: Need binding result, item humanized 03A01-VH2-VK1 (antibody, V domains shown) VH: EVQFQESGPGLVKPSQTLSLTCTVSGYSITSDFAWNWIRQPPGKGLEWMGYISYSGDTNYNPSLRSRITISRDTSKNQFSLKLSSVTAADTAVYYCTIRGYYTDSAFVFWGQGTLVTVSS VL: DIQMTQSSSTLSVSLGDRVTITCKASDHINNWLAWYQQKPGKAPRLLISGATSLETGVPSRFSGSGSGLEYTLTISSLQPDDFATYYCQQYWNSPFTFGQGTKLEIK
Outgoing: binds

Incoming: Need binding result, item humanized 03A01-VH4-VK3 (antibody, V domains shown) VH: EVQFQESGPGLVKPSQTLSLTCTVSGYSITSDFAWNWIRQPPGKGLEWIGYISYSGDTYYNPSLKSRVTISRDTSKNQFSLKLSSVTAADTAVYYCTIRGYYTDSAFVFWGQGTLVTVSS VL: DIQMTQSPSTLSASVGDRVTITCKASDHINNWLAWYQQKPGKAPKLLISGATSLETGVPSRFSGSGSGLEYTLTISSLQPDDFATYYCQQYWNSPFTFGQGTKLEIK
Outgoing: binds

Incoming: Need binding result, item humanized 03A01-VH1-VK1 (antibody, V domains shown) VH: EVQFQESGPGLVKPSQTLSLTCTVTGYSITSDFAWNWIRQPPGKELEWMGYISYSGDTNYNPSLRSRITISRDTSKNQFSLKLSSVTAADTATYYCTIRGYYTDSAFVFWGQGTLVTVSS VL: DIQMTQSSSTLSVSLGDRVTITCKASDHINNWLAWYQQKPGKAPRLLISGATSLETGVPSRFSGSGSGLEYTLTISSLQPDDFATYYCQQYWNSPFTFGQGTKLEIK
Outgoing: binds
